Collected IC50 values appear next to each entry.
Target: MAGL (Homo sapiens)
Sequence (Q99685 1-303): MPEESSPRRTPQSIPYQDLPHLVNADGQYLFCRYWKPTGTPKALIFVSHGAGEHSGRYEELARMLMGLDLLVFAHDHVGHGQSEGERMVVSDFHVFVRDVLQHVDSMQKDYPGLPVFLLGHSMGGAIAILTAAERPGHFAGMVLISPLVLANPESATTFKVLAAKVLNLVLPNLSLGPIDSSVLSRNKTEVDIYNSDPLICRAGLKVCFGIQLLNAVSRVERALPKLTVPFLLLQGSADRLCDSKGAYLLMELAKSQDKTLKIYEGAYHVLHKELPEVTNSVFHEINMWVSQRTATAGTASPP
Test: 2-AG assay (MAGL inhibitory activity; hydrolysis of 2-arachidonoylglycerol to arachidonic acid followed by mass spectrometry)
Assay type: biochemical
Conditions: 15 min preincubation at RT, 8 μM 2-arachidonoylglycerol, 30 min at RT, RapidFire MS readout
// return numeric value only (unit: µM, not printed)

{"columns": ["testSmiles", "system", "IC50 (µM)"],
 "data": [
  ["O=C(c1cccc(-c2cocn2)c1Cl)N1CCN2C[C@@](O)(c3ccc(C(F)(F)F)cn3)OC[C@@H]2C1", "MAGL (Homo sapiens)", 0.237],
  ["COc1ccc(F)c(C(=O)N2CCN3C[C@@H](c4cc(Cl)c[nH]c4=O)OC[C@@H]3C2)c1Cl", "MAGL (Homo sapiens)", 0.385],
  ["O=C(c1cnc2sccc2c1Cl)N1CCN2C[C@@H](c3ccc(F)c(Cl)c3)OC[C@@H]2C1", "MAGL (Homo sapiens)", 0.0282]
]}

## Task Fill in: IC50 of `COc1cccc(C(=O)N2CCN3C[C@H](c4cc(Cl)c[nH]c4=O)OC[C@@H]3C2)c1Cl` is ___
## Result 2.21
